Hi there, I'd appreciate the recorded %Inh for every entry that follows.
System: IKK-alpha;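 also: KINOMEscan kinase panel screen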
Construct: gene CHUK
reportedConditions: concentration: 1 μM, replicates: in singlicate; n = 1
Answers are plain numbers, in %.

Worked examples, 4 compounds total:
- compound: "Cc1cccc(-c2nc(Nc3ccc4c(cnn4C)c3)c3ccccc3n2)n1"
  %Inh, %: 1
- compound: "Nc1n[nH]c2nnc(-c3ccccc3)c(-c3ccccc3)c12"
  %Inh, %: 28
- compound: "O=C(Nc1n[nH]c2nc(-c3ccccc3)c(Br)cc12)C1CC1"
  %Inh, %: 0
- compound: "Cn1c(=O)c(F)c(Nc2ccc(I)cc2F)c2c(=O)n(OC[C@H](O)CO)cnc21"
  %Inh, %: 0

Dear reader, for each entry below, please note its %Inh.
1. COc1cccc(C2=C(N(C)c3ccccc3)C(=O)NC2=O)c1
2. OCCCNc1nccc(-c2c(-c3cccc(C(F)(F)F)c3)nn3cc(C(F)(F)F)ccc23)n1
3. CCn1c(-c2ccoc2)nc2cnccc21
4. Nc1n[nH]c2ncc(-c3ccccc3)cc12

Result:
1: 0; 2: 0; 3: 30; 4: 27

Dear reader, for each entry below, please note its %Inh.
1. COc1ccc(-c2cc3c(C)nc(N)nc3n([C@H]3CC[C@H](O)CC3)c2=O)cn1
2. Cc1nnc(-c2ccc3ncn(-c4ccc(S(C)=O)cc4)c3c2)o1 (stereo not shown)

Result:
1. 0
2. 25

Origin of the recorded values: paper PMC5540273
